Test System: T1, human GIP receptor (human, UniProt P48546 22-466)
T1 sequence (looked up): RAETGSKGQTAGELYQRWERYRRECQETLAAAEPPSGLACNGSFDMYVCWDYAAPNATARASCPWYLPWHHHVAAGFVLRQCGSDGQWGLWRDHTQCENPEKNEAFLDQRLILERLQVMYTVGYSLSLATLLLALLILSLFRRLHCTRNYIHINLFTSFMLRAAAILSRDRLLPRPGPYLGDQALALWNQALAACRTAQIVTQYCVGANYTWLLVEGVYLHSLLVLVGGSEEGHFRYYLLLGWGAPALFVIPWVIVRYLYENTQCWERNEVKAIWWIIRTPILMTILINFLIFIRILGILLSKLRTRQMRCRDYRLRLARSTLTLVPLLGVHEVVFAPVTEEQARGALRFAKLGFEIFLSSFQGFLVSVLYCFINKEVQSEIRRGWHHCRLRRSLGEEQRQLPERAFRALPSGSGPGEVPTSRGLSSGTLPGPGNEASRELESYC
Assay Details: cell-based or functional assay
Bridges are numbered along the chain shown (N, C = ends). Where no end group is shown, it is not given here. [ ]: non-standard residue; d: D form. The star is where a group is joined. Acetyl(2-(4-imidazolyl)) = O=C(Cc1c[nH]cn1)*; Aib = CC(C)(N)C(=O)O
Kindly supply the reported in vitro Activity Compared to Native Peptide (%), vs GIP values for the records listed here.

Request: Return reported in vitro Activity Compared to Native Peptide (%), vs GIP. Input binder: [Acetyl(2-(4-imidazolyl))][Aib]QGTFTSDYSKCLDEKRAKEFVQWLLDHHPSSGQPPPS (bridge 16-20; not fully specified (C-terminus)) [triple agonist of SEQ ID NO: 74]
Result: 1%

Request: Return reported in vitro Activity Compared to Native Peptide (%), vs GIP. Input binder: [Acetyl(2-(4-imidazolyl))]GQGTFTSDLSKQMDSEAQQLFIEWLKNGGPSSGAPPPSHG-NH2 [triple agonist of SEQ ID NO: 16]
Result: < 0.1%

Request: Return reported in vitro Activity Compared to Native Peptide (%), vs GIP. Input binder: Y[Aib]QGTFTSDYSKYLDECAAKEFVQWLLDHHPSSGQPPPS (bridge 16-20; not fully specified (C-terminus)) [triple agonist of SEQ ID NO: 64]
Result: 92.9%

Request: Return reported in vitro Activity Compared to Native Peptide (%), vs GIP. Input binder: [Acetyl(2-(4-imidazolyl))][Aib]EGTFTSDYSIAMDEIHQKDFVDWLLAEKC (bridge 16-20; not fully specified (C-terminus)) [triple agonist of SEQ ID NO: 91]
Result: 0.3%

Request: Return reported in vitro Activity Compared to Native Peptide (%), vs GIP. Input binder: H[Aib]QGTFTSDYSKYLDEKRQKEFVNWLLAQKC (bridge 16-20; not fully specified (C-terminus)) [triple agonist of SEQ ID NO: 34]
Result: 0.6%
